assay: Octanol-phosphate buffer partition coefficient, log P of the compound after 5 hrs by shake-flask method; type: physicochemical
The following compounds are shown together with reported logP at 5 h values.

MOLECULE: COc1ccc(/C=C/C(=O)c2ccc(NC(=O)CN3CCN(c4cc5c(cc4F)c(=O)c(C(=O)O)cn5C4CC4)CC3)cc2)cc1OC
logP at 5 h: 1.46
//
MOLECULE: O=C(CN1CCN(c2cc3c(cc2F)c(=O)c(C(=O)O)cn3C2CC2)CC1)Nc1ccc(C(=O)/C=C/c2cccc(Cl)c2)cc1
logP at 5 h: 0.302
//
MOLECULE: COc1cc(/C=C/C(=O)c2ccc(NC(=O)CN3CCN(c4cc5c(cc4F)c(=O)c(C(=O)O)cn5C4CC4)CC3)cc2)cc(OC)c1OC
logP at 5 h: 0.753
//
MOLECULE: O=C(CN1CCN(c2cc3c(cc2F)c(=O)c(C(=O)O)cn3C2CC2)CC1)Nc1ccc(C(=O)/C=C/c2ccccc2Cl)cc1
logP at 5 h: 1.29

----------
assay: Aqueous solubility of the compound at pH 7.8 by UV spectroscopic analysis; format: physicochemical; conditions: aqueous solution
The following compounds are shown together with reported solubility values.

MOLECULE: COc1cc(/C=C/C(=O)c2ccc(NC(=O)CN3CCN(c4cc5c(cc4F)c(=O)c(C(=O)O)cn5C4CC4)CC3)cc2)cc(OC)c1OC
UNITS: µg/mL
solubility: 2.01
//
MOLECULE: O=C(CN1CCN(c2cc3c(cc2F)c(=O)c(C(=O)O)cn3C2CC2)CC1)Nc1ccc(C(=O)/C=C/c2ccccc2Cl)cc1
UNITS: µg/mL
solubility: 2.12
//
MOLECULE: O=C(CN1CCN(c2cc3c(cc2F)c(=O)c(C(=O)O)cn3C2CC2)CC1)Nc1ccc(C(=O)/C=C/c2ccc3c(c2)OCO3)cc1
UNITS: µg/mL
solubility: 2.24

----------
test: Aqueous solubility of the compound at pH 6.9 by UV spectroscopic analysis; assay type: physicochemical; details: aqueous solution
EXPERIMENTAL_READOUT: solubility (µg/mL)

MOLECULE: O=C(CN1CCN(c2cc3c(cc2F)c(=O)c(C(=O)O)cn3C2CC2)CC1)Nc1ccc(C(=O)/C=C/c2ccc(Cl)cc2)cc1
EXPERIMENTAL_READOUT: solubility
MEASURED: 2.77
--
MOLECULE: O=C(CN1CCN(c2cc3c(cc2F)c(=O)c(C(=O)O)cn3C2CC2)CC1)Nc1ccc(C(=O)/C=C/c2ccc3c(c2)OCO3)cc1
EXPERIMENTAL_READOUT: solubility
MEASURED: 2.66
--
MOLECULE: O=C(CN1CCN(c2cc3c(cc2F)c(=O)c(C(=O)O)cn3C2CC2)CC1)Nc1ccc(C(=O)/C=C/c2ccccc2Cl)cc1
EXPERIMENTAL_READOUT: solubility
MEASURED: 2.45

----------
The following compounds are shown together with reported inhibition values.
target: UniProtKB P11388; experiment: Inhibition of human topoisomerase 2alpha-mediated relaxation of supercoiled pBR322 DNA at 100 uM after 30 mins by agarose gel electrophoresis relative to control
Sequence (P11388 whole entry): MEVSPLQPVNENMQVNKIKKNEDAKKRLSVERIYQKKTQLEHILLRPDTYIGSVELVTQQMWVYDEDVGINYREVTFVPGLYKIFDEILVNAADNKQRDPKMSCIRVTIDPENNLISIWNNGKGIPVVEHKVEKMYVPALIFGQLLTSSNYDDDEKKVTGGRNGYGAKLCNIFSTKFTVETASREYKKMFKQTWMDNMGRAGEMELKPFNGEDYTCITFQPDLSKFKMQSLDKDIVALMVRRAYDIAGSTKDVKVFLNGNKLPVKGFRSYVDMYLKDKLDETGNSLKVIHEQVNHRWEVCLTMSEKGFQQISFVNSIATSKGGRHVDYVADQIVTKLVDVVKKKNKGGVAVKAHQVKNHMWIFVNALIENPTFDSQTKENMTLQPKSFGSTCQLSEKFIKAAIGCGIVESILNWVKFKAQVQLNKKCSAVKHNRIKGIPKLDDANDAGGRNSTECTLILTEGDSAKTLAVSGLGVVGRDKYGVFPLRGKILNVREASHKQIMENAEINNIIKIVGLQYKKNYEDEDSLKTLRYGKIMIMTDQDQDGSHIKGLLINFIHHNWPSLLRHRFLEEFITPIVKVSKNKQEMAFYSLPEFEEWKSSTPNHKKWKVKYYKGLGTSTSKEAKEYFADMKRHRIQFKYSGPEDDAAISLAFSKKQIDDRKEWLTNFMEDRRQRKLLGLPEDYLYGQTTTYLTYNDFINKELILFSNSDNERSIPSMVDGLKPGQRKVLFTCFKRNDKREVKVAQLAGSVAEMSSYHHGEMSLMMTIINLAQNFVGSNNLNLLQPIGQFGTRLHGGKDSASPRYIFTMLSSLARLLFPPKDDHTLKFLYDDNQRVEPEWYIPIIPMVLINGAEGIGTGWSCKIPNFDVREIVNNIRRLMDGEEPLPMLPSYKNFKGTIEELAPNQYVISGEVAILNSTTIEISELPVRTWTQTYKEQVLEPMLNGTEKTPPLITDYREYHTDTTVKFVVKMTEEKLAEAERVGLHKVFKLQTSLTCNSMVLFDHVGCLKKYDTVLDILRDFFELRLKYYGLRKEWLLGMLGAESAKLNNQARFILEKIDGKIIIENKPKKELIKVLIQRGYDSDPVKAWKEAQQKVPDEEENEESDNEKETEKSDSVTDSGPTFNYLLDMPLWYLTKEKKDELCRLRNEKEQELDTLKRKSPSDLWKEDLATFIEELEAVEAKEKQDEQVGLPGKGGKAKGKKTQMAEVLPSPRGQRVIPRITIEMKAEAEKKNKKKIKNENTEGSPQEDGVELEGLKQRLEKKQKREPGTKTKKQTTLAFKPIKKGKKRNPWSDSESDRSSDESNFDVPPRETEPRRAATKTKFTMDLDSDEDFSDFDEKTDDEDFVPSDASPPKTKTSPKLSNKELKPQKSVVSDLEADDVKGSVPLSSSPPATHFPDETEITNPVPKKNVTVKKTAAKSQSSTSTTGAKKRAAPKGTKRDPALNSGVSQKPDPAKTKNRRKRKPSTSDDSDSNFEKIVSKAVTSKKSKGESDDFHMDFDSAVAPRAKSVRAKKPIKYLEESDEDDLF

MOLECULE: O=C(CN1CCN(c2cc3c(cc2F)c(=O)c(C(=O)O)cn3C2CC2)CC1)Nc1ccc(C(=O)/C=C/c2ccc3c(c2)OCO3)cc1
inhibition [%]: 85.7
--
MOLECULE: O=C(CN1CCN(c2cc3c(cc2F)c(=O)c(C(=O)O)cn3C2CC2)CC1)Nc1ccc(C(=O)/C=C/c2ccccc2Cl)cc1
inhibition [%]: 66.7
--
MOLECULE: O=C(CN1CCN(c2cc3c(cc2F)c(=O)c(C(=O)O)cn3C2CC2)CC1)Nc1ccc(C(=O)/C=C/c2ccc(Cl)cc2)cc1
inhibition [%]: 27.7
--
MOLECULE: COc1cc(/C=C/C(=O)c2ccc(NC(=O)CN3CCN(c4cc5c(cc4F)c(=O)c(C(=O)O)cn5C4CC4)CC3)cc2)cc(OC)c1OC
inhibition [%]: 5.2
--
MOLECULE: O=C(CN1CCN(c2cc3c(cc2F)c(=O)c(C(=O)O)cn3C2CC2)CC1)Nc1ccc(C(=O)/C=C/c2cccc([N+](=O)[O-])c2)cc1
inhibition [%]: 82.8
--
MOLECULE: O=C(CN1CCN(c2cc3c(cc2F)c(=O)c(C(=O)O)cn3C2CC2)CC1)Nc1ccc(C(=O)/C=C/c2ccccc2)cc1
inhibition [%]: 35.7
